molecular target: human CD73 on the cell surface (293T/17-huCD73 cells) (human) (UniProt P21589); experiment: flow cytometry on 293T/17-human CD73 cells, curve fit
Sequence (P21589 27-549): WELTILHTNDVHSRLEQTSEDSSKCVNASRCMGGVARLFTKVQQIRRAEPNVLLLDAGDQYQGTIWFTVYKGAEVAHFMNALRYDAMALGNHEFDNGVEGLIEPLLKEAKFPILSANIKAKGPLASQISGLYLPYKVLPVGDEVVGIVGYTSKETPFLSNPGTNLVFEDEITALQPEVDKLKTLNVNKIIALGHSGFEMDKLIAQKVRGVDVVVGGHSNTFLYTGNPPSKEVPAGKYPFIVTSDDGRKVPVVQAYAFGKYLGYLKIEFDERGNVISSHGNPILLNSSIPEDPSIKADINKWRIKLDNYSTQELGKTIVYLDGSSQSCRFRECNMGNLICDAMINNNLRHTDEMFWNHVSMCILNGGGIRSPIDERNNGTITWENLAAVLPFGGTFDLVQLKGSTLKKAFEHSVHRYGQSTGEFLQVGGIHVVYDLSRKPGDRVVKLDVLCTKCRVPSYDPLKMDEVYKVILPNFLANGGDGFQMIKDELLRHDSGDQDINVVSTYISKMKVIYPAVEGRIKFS
Reported endpoint: Bottom (fluorescence)
Answer with a number only, understood to be in fluorescence.

{"columns": ["Binder", "Bottom, fluorescence"],
 "data": [
  ["JB94H3L3 (antibody, human IgG1, kappa, V domains shown) VH: QVQLQQSGAEVKKPGASVKLSCKASGYTFTSYWMHWVRQRPGQGLEWIGYINPSSGYTKSNQKFKDRATLTADTSTSTAYMELSSLRSEDTAVYYCGRWLLSAWFAYWGQGTLVTVSS VL: DIQMTQSPSSLSASVGDRVTITCKASQDINTYLSWFQQKPGKSPKSLIYRSNILVDGVPSRFSGSGSGQDYTLTISSLQPEDFAIYYCLQYDDFPYTFGQGTKLEIKR", 1.78],
  ["JB24Chi (antibody, human IgG1, kappa, V domains shown) VH: QVQLQQSGLELVKPGASVKMSCKASGYTFTDYNMHWVKQSHGKSLEWIGYIKPHNGGTTYNPKFEGKATLTVNKSSSTAYMELRSLTSEDSAVYYCVRCDFLYWYFDVWGTGTTVTVSS VL: DIVMTQSPAIMSASLGERVTMTCTASSSVSSSYLHWYQQKPGSSPKLWIYSTSNLASGVPGRFSGSGSGTSYSLTISSMEAEDAATYYCHQYHRSPLTFGAGTKLEMKR", 3.72],
  ["JB24H3L2 (antibody, human IgG1, kappa, V domains shown) VH: QVQLVQSGAEVKKPGASVKMSCKASGYTFTDYNMHWVKQSHGKSLEWIGYIKPHNAGTTYNPKFEGRATLTVDTSASTAYMELRSLRSEDTAVYYCVRSDFLYWYFDVWGQGTTVTVSS VL: DIQMTQSPSSLSASVGDRVTITCTASSSVSSSYLHWYQQKPGSAPKLWIYSTSNLASGVPSRFSGSGSGTDYTLTISSLQPEDFATYYCHQYHRSPLTFGAGTKLEIKR", 1.78],
  ["JB94H2L1 (antibody, human IgG1, kappa, V domains shown) VH: QVQLVQSGAEVKKPGASVKVSCKASGYTFTSYWMHWVRQRPGQGLEWMGYINPSSGYTKSNQKFKDRVTLTADTSTSTAYMELSSLRSEDTAVYYCGRWLLSAWFAYWGQGTLVTVSS VL: DIQMTQSPSSLSASVGDRVTITCKASQDINTYLSWFQQKPGKAPKSLIYRSNILVDGVPSRFSGSGSGQDFTLTISSLQPEDFAIYYCLQYDDFPYTFGQGTKLEIKR", 0.604],
  ["JB24H3L3 (antibody, human IgG1, kappa, V domains shown) VH: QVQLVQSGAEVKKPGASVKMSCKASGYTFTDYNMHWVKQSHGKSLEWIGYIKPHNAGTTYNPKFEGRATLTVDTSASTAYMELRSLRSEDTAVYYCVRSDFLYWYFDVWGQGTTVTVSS VL: DIVMTQSPSSLSASVGDRVTITCTASSSVSSSYLHWYQQKPGSSPKLWIYSTSNLASGVPGRFSGSGSGTDYTLTISSLQPEDFATYYCHQYHRSPLTFGAGTKLEIKR", 0.131]
]}

Here's the next entry for you.
Req: So what's the measured Bottom for this one? JB24H2L1 (antibody, human IgG1, kappa, V domains shown) VH: QVQLVQSGAEVKKPGASVKMSCKASGYTFTDYNMHWVRQSPGKSLEWIGYIKPHNAGTTYNPKFEGRATLTVDTSASTAYMELSSLRSEDTAVYYCVRSDFLYWYFDVWGQGTTVTVSS VL: DIQMTQSPSSLSASVGDRVTITCTASSSVSSSYLHWYQQKPGKAPKLLIYSTSNLASGVPSRFSGSGSGTDFTLTISSLQPEDFATYYCHQYHRSPLTFGAGTKLEIKR
Resp: 1.64
